Provide the recorded binding signal for the entries that follow.
TESTED_TARGET: GST-Aq-NF-kB (Amphimedon queenslandica, UniProt A9Y5G7 2-389)
Sequence: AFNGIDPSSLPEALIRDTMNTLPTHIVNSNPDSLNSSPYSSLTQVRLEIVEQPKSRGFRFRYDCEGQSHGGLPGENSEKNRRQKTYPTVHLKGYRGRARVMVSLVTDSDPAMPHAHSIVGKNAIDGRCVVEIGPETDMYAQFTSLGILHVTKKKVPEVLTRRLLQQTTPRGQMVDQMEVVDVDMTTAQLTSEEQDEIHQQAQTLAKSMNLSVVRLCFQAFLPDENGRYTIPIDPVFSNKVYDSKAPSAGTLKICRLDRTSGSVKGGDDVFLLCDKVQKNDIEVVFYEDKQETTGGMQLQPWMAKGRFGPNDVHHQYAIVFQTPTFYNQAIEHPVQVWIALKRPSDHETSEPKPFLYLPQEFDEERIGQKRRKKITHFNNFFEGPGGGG
TEST_PROTOCOL: protein-binding microarray (PBM); PBM: ~300 nM protein, 6 mM HEPES pH 7.8, 80 mM KCl, 0.5 mM EDTA, 0.5 mM EGTA, 6% glycerol, 35 ng/ul poly-dIdC, 1% milk, 1 h, room temperature; Ap Aiptasia and Nv Nematostella (sea anemones) / Co Capsaspora / Aq Amphimedon (sponge) / Dm Drosophila / Hu human; RHD is the Rel homology domain; high values mean tight binding
RECORDED_CONDITIONS: dsDNA, one strand shown
Report the value in z-score with no unit label.

Q: Query binding signal on GST-Aq-NF-kB (Amphimedon queenslandica, UniProt A9Y5G7 2-389) for `CCGATTAACATCAAGGTGTTCCCTGATGTTAATCGGGTCTTGATTCGCTTGACGCTGCTG`
Ans: 2.49

Q: Query binding signal on GST-Aq-NF-kB (Amphimedon queenslandica, UniProt A9Y5G7 2-389) for `CCGATTAACATCAAAAAATTCCCTGATGTTAATCGGGTCTTGATTCGCTTGACGCTGCTG`
Ans: 8.5

Q: Query binding signal on GST-Aq-NF-kB (Amphimedon queenslandica, UniProt A9Y5G7 2-389) for `CCGATTAACATCAGGGGGATCTATGATGTTAATCGGGTCTTGATTCGCTTGACGCTGCTG`
Ans: 4.5

Q: Query binding signal on GST-Aq-NF-kB (Amphimedon queenslandica, UniProt A9Y5G7 2-389) for `CCGATTAACATCAGAAATCCCACTGATGTTAATCGGGTCTTGATTCGCTTGACGCTGCTG`
Ans: 2.41

Q: Query binding signal on GST-Aq-NF-kB (Amphimedon queenslandica, UniProt A9Y5G7 2-389) for `CCGATTAACATCAAGGGGGGGCGTGATGTTAATCGGGTCTTGATTCGCTTGACGCTGCTG`
Ans: 4.52

Q: Query binding signal on GST-Aq-NF-kB (Amphimedon queenslandica, UniProt A9Y5G7 2-389) for `CCGATTAACATCACAACGACCCCTGATGTTAATCGGGTCTTGATTCGCTTGACGCTGCTG`
Ans: 2.48

Q: Query binding signal on GST-Aq-NF-kB (Amphimedon queenslandica, UniProt A9Y5G7 2-389) for `CCGATTAACATCAGGATATCCCATGATGTTAATCGGGTCTTGATTCGCTTGACGCTGCTG`
Ans: 2.24

Q: Query binding signal on GST-Aq-NF-kB (Amphimedon queenslandica, UniProt A9Y5G7 2-389) for `CCGATTAACATCACTTTGGGAAATGATGTTAATCGGGTCTTGATTCGCTTGACGCTGCTG`
Ans: 1.28
